The following binders are listed with their measured Cell-cell contact assay values.
Target: human PD-1 (wild-type), expressed on cells (human, UniProt Q15116 25-288)
Sequence (Q15116 25-288 limits assumed): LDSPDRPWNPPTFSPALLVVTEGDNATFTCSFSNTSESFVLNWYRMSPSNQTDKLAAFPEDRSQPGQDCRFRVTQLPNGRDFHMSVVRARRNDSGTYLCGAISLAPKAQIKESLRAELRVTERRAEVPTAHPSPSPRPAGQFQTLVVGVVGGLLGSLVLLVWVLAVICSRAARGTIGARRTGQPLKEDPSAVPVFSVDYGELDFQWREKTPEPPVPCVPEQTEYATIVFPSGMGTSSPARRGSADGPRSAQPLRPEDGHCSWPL
Experiment: cell-based or functional assay
Measured metric: Cell-cell contact assay (ng/mL)

[[record]]
binder = "HM297-G4 (antibody, human IgG1, V domains shown, also called humanized HM297, VH ver.G / VL ver.4) VH: QVQLVQSGPEVKKPGASVKIPCKASGYTFTDYNVDWVRQVPGQGLEWIGDIDPNNGGTIYNQKFKDKATLTVDKSTRTAYMELRSLRSDDTAVYYCARWRGAMDYWGQGTLVTVSS VL: DIQMTQTTSSLSASVGDRVTITCRASQDIDNYLKWYQQKPDGTVKLLIYDTSRLHSGVPSRFSGSGSGTDYTLTISSLKQEDFATYYCQQGYTLPWTFGQGTKLEIK"
units = "ng/mL"
value_observed = 55.4

[[record]]
binder = "HM297-G5 (antibody, human IgG1, V domains shown, also called humanized HM297, VH ver.G / VL ver.5) VH: QVQLVQSGPEVKKPGASVKIPCKASGYTFTDYNVDWVRQVPGQGLEWIGDIDPNNGGTIYNQKFKDKATLTVDKSTRTAYMELRSLRSDDTAVYYCARWRGAMDYWGQGTLVTVSS VL: DIQMTQSPSSLSASVGDRVTITCRASQDIDNYLKWYQQKPDGTVKLLIYDTSRLHSGVPSRFSGSGSGTDYTLTISSLKQEDFATYYCQQGYTLPWTFGQGTKLEIK"
units = "ng/mL"
value_observed = 102

